# System: NCI-H23 lung
# ASSAY INFO: NCI-60 one-dose screen, 48 h (100 = growth as untreated, 0 = no growth, -100 = all killed)
# ASSAY CONTEXT: 10 µM unless noted
This is part of a sample that, as a whole, favours compounds with a hit. Of some 83,000 tested, about 20% had one in any assay.
READOUT LABEL: growth (%)
# output: bare number, implied unit %

COc1cc2ncnc(Nc3ccc(S(=O)(=O)Nc4cc(C)on4)cc3)c2cc1OCCCN1CCOCC1    100

I would be grateful if you could share the reported growth for Clc1nc(N2CCC[N+]3(CC2)CC[N+]2(CCCNCC2)CC3)nc(N2CCC[N+]3(CC2)CC[N+]2(CCCNCC2)CC3)n1 (stereo not drawn) .
89.2

I would be grateful if you could share the reported growth for COc1ccc2c(c1)C(c1c[nH]c3ccccc13)(c1c[nH]c3ccccc13)CCO2 .
53.3

I would be grateful if you could share the reported growth for Cc1ccccc1NC(=O)Cn1cc(CN2CCN(c3ccnc4cc(Cl)ccc34)CC2)nn1 .
99.2

I would be grateful if you could share the reported growth for O=C(Nc1ncc(Cc2ccccc2)s1)c1ccc2c(c1)OCCO2 .
30.8

I would be grateful if you could share the reported growth for COC(=O)[C@@H](Cc1c[nH]c2ccccc12)NC[C@@H](O)CN1C(=O)/C(=C\c2cc(OC)c(OC)c(OC)c2)c2ccccc21 .
76.6

I would be grateful if you could share the reported growth for Cc1c(-c2cnc3ccc(Cl)cc3c2C(=O)O)nnn1-c1ccc(Cl)cc1 .
103

I would be grateful if you could share the reported growth for CCN1CCN(C(=O)[C@]23CC[C@@H](C)[C@H](C)[C@@H]2C2=CC[C@@H]4[C@@]5(C)C/C(=C/c6ccncc6)C(=O)C(C)(C)[C@@H]5CC[C@@]4(C)[C@]2(C)CC3)CC1 .
20.8

====

# Tested on: IGROV1 ovarian
# ASSAY INFO: NCI-60 one-dose screen, 48 h
# ASSAY CONTEXT: 10 µM unless noted
This is part of a sample that, as a whole, favours compounds with a hit. Of some 83,000 tested, about 20% had one in any assay. Active and inactive are the calls of the source. The calls were made as follows: active = growth percent below 10; inactive = the rest.
Parameter call: string, one of 1 (yes) (active), 0 (no) (inactive)

OC1CSSC1Cn1cnc2c(Nc3ccc(F)c(Cl)c3)ncnc21 (centres undefined)    0 (no)
COc1ccc(/C=C/C(=O)c2ccc(-n3cc(CN4CCN(c5cc6c(cc5F)c(=O)c(C(=O)O)cn6C5CC5)CC4)nn3)cc2)cc1    0 (no)
COC(=O)c1cc(-c2ccc(OC)c(OC)c2)[nH]c1N/N=C/c1c(Cl)cccc1Cl    0 (no)

Hi team, can someone confirm the assay call for CN(Cc1ccccc1)c1nc(Cl)c(C2CC(c3ccc(Cl)cc3)=NN2c2cc(Cl)cc(Cl)c2)s1 (centres undefined) ?
0 (no)

Hi team, can someone confirm the assay call for c1ccc(-c2nc(N3CCNCC3)c3oc(-c4ccccc4)nc3n2)cc1 ?
1 (yes)

Hi team, can someone confirm the assay call for COc1cc(C(=O)n2nc(NCCCc3ccccc3)c3cc(N)ccc32)cc(OC)c1OC ?
0 (no)

Hi team, can someone confirm the assay call for C#C[C@]1(O)CC[C@H]2[C@@H]3CC=C4c5sc(-c6ccccc6)nc5CC[C@]4(C)[C@H]3CC[C@@]21C ?
0 (no)

Hi team, can someone confirm the assay call for O=C1C2C(c3cccs3)C=C(c3ccc(Cl)cc3)N2C(=S)N1c1ccccc1 (centres undefined) ?
0 (no)

Hi team, can someone confirm the assay call for O=C(CSc1nc(-c2ccccc2)cn1-c1ccc(Cl)cc1)c1ccc([N+](=O)[O-])cc1 ?
0 (no)
